Measured melting point of individual entries

Examples from the recorded data:
>  <compound>
CCc1ccc(-c2ccc3c(c2)C=C(C(=O)Nc2ccc(CN(C)C4CCOCC4)cc2)CCS3(=O)=O)cc1

>  <quantity_measured>
melting point

>  <observed>
257 to 260 °C

$$$$
>  <compound>
CSc1ccc(-c2coc3ccc(-c4nnc(C)o4)cc23)cc1

>  <quantity_measured>
melting point

>  <observed>
173 to 174 °C

$$$$

// melting point lookup, compound = `COCCNC(=O)Nc1ccc([N+](=O)[O-])cc1O` , result: 190 to 191 °C

Recorded result, `CCOc1cc(-c2ccc(C(F)(F)F)cc2)nc(-c2cccc(C(F)(F)F)c2)c1` , melting point: 95.1 °C

Input `Cc1nn(-c2ccccc2)c(Nc2ccccc2)c1CC(=O)O` . Output melting point: 111 to 113 °C

---

Each entry below carries its recorded melting point.

Guide cases for melting point, answers given:
>  <molecule>
CCCC1Sc2nncn2N=C1c1ccc2c(c1)NC(=O)CO2 (stereo not given)

>  <melting point>
235 to 237 °C

$$$$
>  <molecule>
COc1cc(OC)c2nc[nH]c(=O)c2c1

>  <melting point>
280 to 282 °C

$$$$

# molecule CS(=O)(=O)Oc1ccc([C@@H]2CCNC(=O)[C@H]2c2ccccc2)cc1 (relative stereo) ; its melting point = 199 °C

Entry CCCC(=O)OCC(=O)C1(OC(=O)COC)CCC2C3CC(C)C4=CC(=O)C=CC4(C)C3C(O)CC21C (stereo not given) — recorded melting point = 132 to 134 °C

melting point measured on `Cc1cc(Oc2c(Cl)cc(C(F)(F)F)cc2Cl)nn1C(=O)NOC(C)(C)C` = 92 to 94 °C

Entry `CCOC(=O)CCCCCOc1c(/C=C/C(=O)CCc2ccccc2)occc1=O` — recorded melting point = 38.5 to 40 °C

So for `Cc1cc(-c2ccc(S(C)(=O)=O)cc2)n(-c2ccc(Br)cc2)c1C` , the logged melting point turned out to be 215 to 219 °C

Cc1cc(=O)c2ccc(OCC(O)CNC(C)C)cc2o1 (stereo not given) has a reported melting point of 80 to 82 °C

Per the record, `COc1ccc2[nH]c(=O)c(-c3nnnn3Cc3cccc(OCc4ccc5ccccc5n4)c3)cc2c1` has melting point of 215 to 217 °C

Lookup result for `CCCC(=O)Oc1ccc(-c2ccc(C#N)cc2)cc1` ; measured melting point: 77.9 to 78.2 °C

---

compounds and their reported melting point

Solved entries (count: 5):
>  <compound>
CN(C)C1CNc2c(cc(Br)cc2[N+](=O)[O-])C1 (stereo unspecified)

>  <melting point>
88 to 91 °C

$$$$
>  <compound>
CC(C)N(C(=O)C(F)(F)F)C(C#N)c1ccc(Cl)cc1 (stereo unspecified)

>  <melting point>
78.5 to 79.5 °C

$$$$
>  <compound>
Brc1ccc(-c2ccnc(-c3ccccc3)n2)cc1

>  <melting point>
107 °C

$$$$
>  <compound>
C/C(=C\c1ccc(OCC(=O)O)cc1)c1ccc2c(c1)C(C)(C)CCC2(C)C

>  <melting point>
152 to 154 °C

$$$$
>  <compound>
c1ccc(C(c2ccccc2)(c2cncnc2)n2ccnc2)cc1

>  <melting point>
161 °C

$$$$

Item: CCC(CCCc1cccnc1)NC(=O)C(O)c1ccccc1 (stereo unspecified) | melting point: 122 to 124 °C

---

quantity_measured: melting point

Study these solved cases before continuing.
>  <compound>
O=c1[nH]c2ccc(S(=O)CCN3CCC(Cc4ccccc4)CC3)cc2o1 (configuration not stated)

>  <melting point>
176 to 178 °C

$$$$
>  <compound>
COc1ccc2c(c1)NC(=O)C(CCO)O2 (configuration not stated)

>  <melting point>
111 to 113 °C

$$$$
>  <compound>
COc1ccc(C(=O)Nc2ccccc2)cc1NC(=S)Nc1ccc(S(N)(=O)=O)cc1

>  <melting point>
193 to 195 °C

$$$$

Documented melting point of `CCNC(=O)c1cccc(F)c1Nc1nc(Cl)ncc1Cl` : 233 to 234 °C

The compound Oc1cccc2c1CC1C(C2)C1(Cl)Cl (configuration not stated) showed melting point equal to 89 to 93 °C

Data point: `CC[C@H]1CNC[C@H]1NC(=O)OC(C)(C)C` ; melting point = 63.5 to 65.5 °C

compound `O=C(O)CCCCCCc1ccc(Cl)cc1` , melting point observed: 75 to 78 °C

Data point: `S=C1c2cccnc2N(c2ccccc2)C2=NCCN12` ; melting point = 293 to 296 °C

For reference, reported melting point for `Nc1c(F)cc(Cl)c2c1CCCO2` stands at 47 to 50 °C

GET /value?item= `CC(C)OP(=O)(/C=C/CCn1cnc2c(Cl)nc(N)nc21)OC(C)C` &field=melting point returns 150 °C

`NCc1c(N)cccc1Oc1ccccc1` yielded melting point of 69 to 71 °C

Record `COc1ccc(C(=O)Nc2ccc(OCc3ccccc3)cc2N)cc1C12CC3CC(CC(C3)C1)C2` . Reported melting point: 185 °C

---

Each item that follows carries a reported melting point.

Known results for compounds:
>  <compound>
COc1ccc(-c2oc3c(CC=C(C)C)c(OC4OC(CO)C(O)C(O)C4O)cc(O)c3c(=O)c2OC2OC(C)C(O)C(O)C2O)cc1 (stereo not given)

>  <melting point>
231 to 233 °C

$$$$
>  <compound>
CCC(C)C(C)C(=O)Nc1ccc2ncnc(NC=C(C(=O)OC)C(=O)OC)c2c1 (stereo not given)

>  <melting point>
216 to 217 °C

$$$$

Note to self: melting point recorded for `N#Cc1cnn2c1NCC=C2c1ccc(Cl)cc1` was 208 to 209 °C

Sample `O=C(Nc1nc(CN2CCC(c3c[nH]c4ccccc34)CC2)cs1)C1CC1` ; melting point observed: 120 to 132 °C

Input C[C@@H]1Cc2ccsc2[C@H](c2ccccc2)N1CCNS(=O)(=O)c1ccc(N)cc1 (relative stereo) . Output melting point: 184 to 186 °C

The recorded melting point for entry `CCNc1nc(C)c(-c2ccncc2)s1` equals 129 to 131 °C

Note to self: melting point recorded for `CC(=O)CN1CCc2c(c(=O)oc3cc(C(C)C)ccc23)C1` was 76 to 79 °C

---

Listing: melting point of selected molecules

Examples with answers:
>  <molecule>
C=CCc1cc(C)c2c(c1O)C(=O)CC2

>  <observed>
41 to 45 °C

$$$$
>  <molecule>
COc1ccc(-c2nn(CCCc3ccccc3)c(=O)cc2-c2ccncc2)cc1

>  <observed>
67.7 to 68.3 °C

$$$$
>  <molecule>
COC(=NC(=O)c1ccc(F)cc1)N1Cc2ccccc2-c2ccccc2C1

>  <observed>
136 to 138 °C

$$$$
>  <molecule>
CCOC(=O)c1cc(=O)c(O)c(-c2ccccc2)o1

>  <observed>
155 to 157 °C

$$$$
>  <molecule>
NS(=O)(=O)c1ccc2c(c1)CNC(C1CCCCC1)N2 (stereo unspecified)

>  <observed>
178 to 180 °C

$$$$

Sample `N#Cc1c(N2CCN(C(=O)c3cccs3)CC2)c2cscc2n(-c2cccnc2)c1=O` ; melting point observed: 282 °C

---

melting point by entry:

Previously resolved entries follow.
>  <molecule>
C=C(C)COc1ccc2c(C)cc(=O)oc2c1C(=O)C=Cc1ccccc1

>  <melting point>
158 to 160 °C

$$$$
>  <molecule>
COC(C)=C(C(=O)OC(c1ccccc1)c1ccccc1)N1C(=O)C(NC(=O)C(NC(=O)OC(C)(C)C)c2ccccc2)C1SS(=O)(=O)c1ccc(C)cc1 (centres undefined)

>  <melting point>
204 to 206 °C

$$$$
>  <molecule>
O=C1N(CC2CCCO2)c2ccccc2C12COc1cc3c(cc12)C(=NO)CO3 (centres undefined)

>  <melting point>
82 to 100 °C

$$$$
>  <molecule>
Cc1cc(C=O)ccc1C(O)c1cccnc1 (centres undefined)

>  <melting point>
97.5 to 99 °C

$$$$
>  <molecule>
O=C(O)CC(Sc1ccccc1)c1ccc(Cl)cc1 (centres undefined)

>  <melting point>
99 to 102 °C

$$$$
>  <molecule>
CCOC(=O)Cc1c(-c2ccccc2)c2cc3c(cc2oc1=O)C(=O)OC3

>  <melting point>
222 to 223 °C

$$$$

Entry under test: `CCOC(=O)C1=COc2cc(C(C)(C)C)c(OC(C)=O)cc2O1` . Its melting point was 144 °C

Kindly note the recorded melting point for `CCNC(=O)c1ccc(-n2nnc(C(=O)NC3CC3)c2CS(=O)(=O)c2ccccc2)cc1` , which is 169 to 172 °C

Reported melting point of CCC1N=C(c2ccccc2Cl)c2cc(CC(=O)OC)sc2NC1=S (centres undefined) : 199 to 200 °C

Form field melting point, entry `C[C@@H](c1ccc(/C=C/c2ccnn2C)cc1)[C@](O)(Cn1cncn1)c1ccc(F)cc1F` : 81 to 83 °C

Short answer for `Cc1ccc(-c2cc(C(N)=O)c(N)s2)cc1` : melting point was 228 to 230 °C

Lab note: C=CC(O)c1cccc(C=Cc2ccc3ccc(Cl)cc3n2)c1 (centres undefined) gave melting point of 110 to 112 °C

Entry COc1cccc(OC)c1CN1C(=O)C2CCCN2c2ncccc21 (centres undefined) ; melting point = 200 to 202 °C

Source listed as a melting point compilation (Tetko et al.; mined from patent text by program, amines drawn as free bases though some values may be those of a salt).
